Target: human CD38 (Homo sapiens, UniProt P28907)
Experiment: NAD+ cyclase activity assay with human recombinant CD38 protein (ε-NAD fluorescence)
Details: 1.9 nM human CD38, substrate ε-NAD, 30 min preincubation, fluorescence 300/410 nm
pIC50: −log10 of the molar value.
readout: pIC50

Q: Which pIC50 value belongs to O=C(NC1CCC(CC(F)(F)F)CC1)c1ccc2c(c1)-c1cncn1CCO2 (centres unmarked) [Compound 119A] ?
Result: > 7.52

Q: Entry `O=C(Nc1ccc2c(c1)OCCO2)c1ccc2c(c1)-c1cncn1CCO2` please
Result: > 7.52

Q: How about O=C(Nc1ccc2c(c1)OCC2)c1ccc2c(c1)-c1cncn1CCO2 [Compound 32A] ?
Result: > 7.52

Q: And the next one, COCCO[C@H]1CC[C@H](NC(=O)c2cc3c(c(C(F)(F)F)c2)OCCn2cncc2-3)CC1 [Compound 55A] ?
Result: 7.00 to 7.52

Q: Lookup O=C(N[C@H]1CC[C@H](OC2CC(F)(F)C2)CC1)c1ccc2c(c1)-c1cncn1CCO2 [Compound 152A]
Result: > 7.52

Q: Another compound to check: O=C(N[C@H]1CCC(F)(F)C1)c1ccc2c(c1)-c1cncn1CCO2 [Compound 93A]
Result: > 7.52

Continuing:
Q: Data request, read-out pIC50, for O=C(N[C@H]1CC[C@H](OC2CC(F)(F)C2)CC1)c1cc(F)c2c(c1)-c1cncn1CCO2 [Compound 166A]
Result: > 7.52

Q: Thanks! And COCCO[C@H]1CC[C@H](NC(=O)c2cc3c(c(C)c2C)OCCn2cncc2-3)CC1 [Compound 179A] ?
Result: 6.00 to 7.00

Q: Thanks! And COCCO[C@H]1CC[C@H](NC(=O)c2cc(OC)c3c(c2)-c2cncn2CCO3)CC1 [Compound 54A] ?
Result: > 7.52

Q: Same question for O=C(N[C@@H]1CCCOC1)c1ccc2c(c1)-n1ccnc1CCO2 [Compound 14A] please.
Result: < 6.00

Q: Now the same for C[C@@H](N[C@H]1CC[C@H](NC(=O)c2ccc3c(c2)-c2cncn2CCO3)CC1)C(F)(F)F [Compound 74A]
Result: 7.00 to 7.52

Q: // same read-out, input: O=C(N[C@H]1CC[C@@H](OCC(F)(F)F)CC1)c1cc2c(c(F)c1F)OCCn1cncc1-2 [Compound 188A]
Result: 6.00 to 7.00

Q: # iterate: O=C(Nc1cnc(OCC(F)(F)F)nc1)c1ccc2c(c1)-c1cncn1CCO2 [Compound 109A]
Result: > 7.52

###

Molecular target: mouse CD38 (Mus musculus)
Sequence (P56528 whole entry): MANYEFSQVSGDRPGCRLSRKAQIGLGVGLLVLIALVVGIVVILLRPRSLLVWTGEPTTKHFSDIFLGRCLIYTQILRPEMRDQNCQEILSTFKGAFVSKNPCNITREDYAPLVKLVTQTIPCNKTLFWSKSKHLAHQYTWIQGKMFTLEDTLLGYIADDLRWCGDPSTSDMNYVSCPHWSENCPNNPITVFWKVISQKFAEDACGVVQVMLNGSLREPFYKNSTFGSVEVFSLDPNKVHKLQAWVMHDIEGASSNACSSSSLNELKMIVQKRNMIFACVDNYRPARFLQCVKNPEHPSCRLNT
Assay: NAD+ cyclase activity assay with mouse recombinant CD38 protein (ε-NAD fluorescence)
Details: 0.6 nM mouse CD38, substrate ε-NAD, 30 min preincubation, fluorescence 300/410 nm
readout: IC50

Q: # get_value(readout='IC50', item= O=C(N[C@H]1CC[C@H](OCC(F)(F)F)CC1)c1cc(F)c2c(c1)-c1cncn1CCO2 [Compound 155A] )
Result: < 1 nM

Now examine the next entry.
Q: I'd like to know its IC50. The compound in question is CN(C)c1nc2ccc(C(=O)N[C@@H]3CCCOC3)cc2n2cncc12 [Compound 35A]
Result: > 100 nM

###

Biological target: mouse CD38 (Mus musculus)
Test: NAD+ cyclase activity assay with mouse recombinant CD38 protein (ε-NAD fluorescence)
Settings: 0.6 nM mouse CD38, substrate ε-NAD, 30 min preincubation, fluorescence 300/410 nm
readout: IC50

Q: Give its IC50 value. Item: O=C(NC1CCC1(F)F)c1ccc2c(c1)-c1cncn1CCO2 (centres unmarked) [Compound 139A]
Result: < 1 nM

Q: Try this compound next: O=C(N[C@H]1CC[C@@H](O[C@H]2C[C@@H](F)C2)CC1)c1ccc2c(c1)-c1cncn1CCO2 [Compound 149A]
Result: 10 to 100 nM

Q: Repeat with C[C@@H]1CCC[C@@H](C)C1NC(=O)c1cc(F)c2c(c1)-c1cncn1CCO2 (relative stereo) [Compound 177A]
Result: 1 to 10 nM

Continuing:
Q: # query: IC50 of entry O=C(N[C@H]1CC[C@H](NCC(F)(F)F)CC1)c1ccc2c(c1)-c1cncn1CCO2 [Compound 62A]
Result: 1 to 10 nM

Q: And O=C(Nc1cnc(OCC(F)(F)F)nc1)c1ccc2c(c1)-c1cncn1CCO2 [Compound 109A] ?
Result: 1 to 10 nM

###

Molecular target: human CD38 (Homo sapiens)
Sequence (P28907 1-300): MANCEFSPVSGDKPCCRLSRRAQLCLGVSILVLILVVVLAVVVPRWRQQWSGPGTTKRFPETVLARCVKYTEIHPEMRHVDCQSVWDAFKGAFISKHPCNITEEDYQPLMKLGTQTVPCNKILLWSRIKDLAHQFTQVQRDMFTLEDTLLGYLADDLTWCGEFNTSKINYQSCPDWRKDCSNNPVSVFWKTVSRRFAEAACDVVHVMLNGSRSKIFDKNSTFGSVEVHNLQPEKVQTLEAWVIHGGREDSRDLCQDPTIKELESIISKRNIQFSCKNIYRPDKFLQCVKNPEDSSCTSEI
Test: NAD+ cyclase activity assay with human recombinant CD38 protein (ε-NAD fluorescence)
Settings: 1.9 nM human CD38, substrate ε-NAD, 30 min preincubation, fluorescence 300/410 nm
Method: Example 4: NAD^+ Cydase Activity Assay with Human or Mouse Recombinant CD38 Protein The following assay was used to determine the ability of compounds of the invention to inhibit the hydrolysis of NAD^+ by the human or mouse enzyme, CD38. Reaction buffer: 40 mM HEPES/NaOH pH 7.5, 250 mM sucrose, 0.01% Tween Final concentrations: 0.6 nM mouse CD38 (4947-AC, Bio-Techne GmbH) 1.9 nM human CD38 (AVI2404, Bio-Techne GmbH) […] Read-out: Fluorescence intensity (extinction 300 nm/emission 410 nm) […]
pIC50: −log10 of the molar value.
readout: pIC50

Worked cases, answers included:
Q: What measured pIC50 is associated with O=C(N[C@H]1CC[C@H](N2CC(F)(F)C2)CC1)c1ccc2c(c1)-c1cncn1CCO2 [Compound 72A] on human CD38 (Homo sapiens)?
Result: > 7.52

Q: And then C[C@@H]1C[C@H](CC(F)(F)F)CC[C@@H]1NC(=O)c1cc(Cl)c2c(c1)-c1cncn1CCO2 (relative stereo) [Compound 184A] , what is it?
Result: 6.00 to 7.00

Q: O=C(N[C@@H]1CCC(F)(F)C1)c1cc(Cl)c2c(c1)-c1cncn1CCO2 [Compound 112A] , same question.
Result: > 7.52

Q: Cool, now O=C(N[C@H]1CC[C@H](OCC(F)(F)F)CC1)c1cc2c(c(F)c1F)OCCn1cncc1-2 [Compound 187A]
Result: > 7.52

More entries:
Q: Give recorded pIC50 with human CD38 (Homo sapiens) for the following compound: O=C(N[C@H]1CC[C@H](OCCCF)CC1)c1ccc2c(c1)-c1cncn1CCO2 [Compound 80A]
Result: > 7.52

Q: Entry CC(C)(CO[C@H]1CC[C@@H](NC(=O)c2cc(Cl)c3c(c2)-c2cncn2CCO3)CC1)C(F)(F)F [Compound 171A] please
Result: < 6.00

Q: # iterate: CC1(NC(=O)c2cc(F)c3c(c2)-c2cncn2CCO3)CCCCC1 [Compound 162A]
Result: 7.00 to 7.52

###

Biological target: human CD38 (Homo sapiens, UniProt P28907)
Assay: NAD+ cyclase activity assay with human recombinant CD38 protein (ε-NAD fluorescence)
Conditions: 1.9 nM human CD38, substrate ε-NAD, 30 min preincubation, fluorescence 300/410 nm
Recorded measurements of IC50, one per entry

Worked examples follow.
Q: For CS(=O)(=O)CCN[C@H]1CC[C@H](NC(=O)c2ccc3c(c2)-c2cncn2CCO3)CC1 [Compound 106A] , what is its reported IC50?
Result: 30 to 100 nM

Q: Also check O=C(Nc1ccc2ncoc2c1)c1ccc2c(c1)-c1cncn1CCO2 [Compound 39A]
Result: < 30 nM

Q: O=C(Nc1cnc(OCCC(F)(F)F)nc1)c1ccc2c(c1)-c1cncn1CCO2 [Compound 104A] ?
Result: < 30 nM

Now turn to the next compound.
Q: Requested field: IC50. Item: O=C(N[C@H]1CC[C@H](NCC(F)F)CC1)c1ccc2c(c1)-c1cncn1CCO2 [Compound 63A]
Result: < 30 nM

###

Below, each of the compounds is paired with its reported pIC50 value.
Molecular target: mouse CD38 (Mus musculus)
Construct: purchased Bio-Techne GmbH 4947-AC
Experiment: NAD+ cyclase activity assay with mouse recombinant CD38 protein (ε-NAD fluorescence)
Assay type: biochemical
Conditions: 0.6 nM mouse CD38, substrate ε-NAD, 30 min preincubation, fluorescence 300/410 nm
Procedure: Example 4: NAD^+ Cydase Activity Assay with Human or Mouse Recombinant CD38 Protein The following assay was used to determine the ability of compounds of the invention to inhibit the hydrolysis of NAD^+ by the human or mouse enzyme, CD38. Reaction buffer: 40 mM HEPES/NaOH pH 7.5, 250 mM sucrose, 0.01% Tween Final concentrations: 0.6 nM mouse CD38 (4947-AC, Bio-Techne GmbH) 1.9 nM human CD38 (AVI2404, Bio-Techne GmbH) […] Read-out: Fluorescence intensity (extinction 300 nm/emission 410 nm) […]
pIC50: −log10 of the molar value.

Record excerpt, results attached:
Q: Please look up its pIC50: `CS(=O)(=O)N1CCC(NC(=O)c2ccc3c(c2)-c2cncn2CCO3)CC1`
Result: 8.00 to 9.00

Q: Continue with O=C(N[C@H]1CC[C@H](OCCC(F)(F)F)CC1)c1ccc2c(c1)-c1cncn1CCO2 [Compound 90A]
Result: > 9.00

Q: Also, O=C(NC1CCC(F)(F)C1)c1ccc2c(c1)-c1cncn1CCO2 (stereo not drawn) [Compound 66A] please.
Result: > 9.00

Q: Now try O=C(NC1CCC(F)(F)CC1)c1cc(Cl)c2c(c1)-c1cncn1CCO2 [Compound 137A] .
Result: > 9.00

Q: Now the same for CC(C)(C)OC(=O)N1Cc2ccc(NC(=O)c3ccc4c(c3)-c3cncn3CCO4)cc2C1 [Compound 23A]
Result: 7.00 to 8.00

Q: Record: `O=C(Nc1ccc2c(c1)OCCO2)c1ccc2c(c1)-c1cncn1CCO2`
Result: 8.00 to 9.00

Q: Also need CS(=O)(=O)N1Cc2ccc(NC(=O)c3ccc4c(c3)-c3cncn3CCO4)cc2C1 [Compound 25A] , thanks.
Result: 8.00 to 9.00

Q: C[C@@H]1CCC[C@H](C)[C@H]1NC(=O)c1cc(F)c2c(c1)-c1cncn1CCO2 [Compound 176A] , same question.
Result: 8.00 to 9.00

Q: Queued: O=C(Nc1ccc2c(c1)CCS2(=O)=O)c1ccc2c(c1)-c1cncn1CCO2 [Compound 19A]
Result: > 9.00

Q: Ok, now O=C(N[C@H]1CCC(F)(F)C1)c1ccc2c(c1)-c1cncn1CCO2 [Compound 93A]
Result: 8.00 to 9.00

Continuing:
Q: What measured pIC50 goes with O=C(N[C@H]1CC[C@H](NCC(F)F)CC1)c1ccc2c(c1)-c1cncn1CCO2 [Compound 63A] ?
Result: 8.00 to 9.00

Q: Repeat for the following compound: `COCCO[C@H]1CC[C@H](NC(=O)c2ccc3c(c2)-c2cncn2CCO3)CC1`
Result: 8.00 to 9.00

Q: Would you kindly repeat that for O=C(N[C@H]1CC[C@@H](OCC(F)(F)F)CC1)c1cc(F)c2c(c1)-c1cncn1CCO2 [Compound 156A] ?
Result: 7.00 to 8.00

Q: Can you check O=C(Nc1ccc2c(n1)OCCO2)c1ccc2c(c1)-c1cncn1CCO2 [Compound 30A] next?
Result: 8.00 to 9.00

Q: Again, but for CCC1CCC(NC(=O)c2ccc3c(c2)-c2cncn2CCO3)CC1 (stereo not drawn) [Compound 125A]
Result: 8.00 to 9.00

Q: Please answer likewise for O=C(Nc1cnc(OCCC(F)F)nc1)c1ccc2c(c1)-c1cncn1CCO2 [Compound 103A]
Result: 8.00 to 9.00

Q: Likewise for O=C(N[C@@H]1CCCC(F)(F)C1)c1ccc2c(c1)-c1cncn1CCO2 [Compound 116A] ?
Result: > 9.00

Q: How about O=C(N[C@H]1CC[C@H](OC2CC(F)(F)C2)CC1)c1ccc2c(c1)-c1cncn1CCO2 [Compound 152A] ?
Result: 8.00 to 9.00

Q: Now the same for O=C(NC1CC(F)(F)C1)c1ccc2c(c1)-c1cncn1CCO2 [Compound 84A]
Result: 8.00 to 9.00

Q: Now try O=C(N[C@H]1CC[C@@H](OC2CC(F)(F)C2)CC1)c1ccc2c(c1)-c1cncn1CCO2 [Compound 153A] .
Result: 7.00 to 8.00

Q: Same for COCCO[C@H]1CC[C@H](NC(=O)c2cc(Br)c3c(c2)-c2cncn2CCO3)CC1 [Compound 46A]
Result: > 9.00

Q: Same question for O=C(Nc1ccc2c(c1)COC2)c1ccc2c(c1)-c1cncn1CCO2 [Compound 33A] please.
Result: 8.00 to 9.00

Q: Entry O=C(N[C@H]1CC[C@H](OC2CC(F)(F)C2)CC1)c1cc(Cl)c2c(c1)-c1cncn1CCO2 [Compound 172A] please
Result: 8.00 to 9.00

Q: Would you mind doing CC(C)(O)[C@H]1CC[C@H](NC(=O)c2ccc3c(c2)-c2cncn2CCO3)CC1 [Compound 58A] as well?
Result: > 9.00

Q: Now try CN1CCOc2cc(NC(=O)c3ccc4c(c3)-c3cncn3CCO4)cnc21 [Compound 98A] .
Result: 8.00 to 9.00

Q: Try the compound O=C(N[C@H]1CC[C@@H](OCCC(F)(F)F)CC1)c1ccc2c(c1)-c1cncn1CCO2 [Compound 89A]
Result: < 7.00

Q: Next compound up: C[C@@H]1CCC[C@H](C)[C@@H]1NC(=O)c1cc(F)c2c(c1)-c1cncn1CCO2 [Compound 178A]
Result: 8.00 to 9.00

Q: Try O=C(NC1CCC(F)(F)CC1)c1cc2c(c(F)c1F)OCCn1cncc1-2 [Compound 154A] next.
Result: > 9.00

Q: Another compound: CC1(NC(=O)c2cc(F)c3c(c2)-c2cncn2CCO3)CCCCC1 [Compound 162A]
Result: 7.00 to 8.00

Q: Ok, now CC(C)(F)CN[C@H]1CC[C@H](NC(=O)c2ccc3c(c2)-c2cncn2CCO3)CC1 [Compound 83A]
Result: 7.00 to 8.00
